tested on: HepG2; assay: GSK_TCMDC: Percent inhibition of human HepG2 cell line. Test compounds present at 10uM.; assay type: functional
reportedProperty: Inhibition (%)
Numbers only, in %.

Examples from the recorded data:
- compound: "CN1CCN(c2ccc(-c3cc(-c4ccncc4)c(-c4ccc(Cl)c(O)c4)o3)cc2)CC1.Cl"
  Inhibition [%]: 0
- compound: "CC(=O)N(Cc1nc(-c2cc(Cl)c(Cl)s2)cs1)c1c(C)cccc1C"
  Inhibition [%]: 5

Dear colleague, could you please provide Inhibition for the compounds listed below?
1. O=C(CN(c1cccc(C(F)(F)F)c1)S(=O)(=O)c1ccc(Cl)cc1)NCCC(c1ccccc1)c1ccccc1
2. O=C(O)C(F)(F)F.OC1CCCN(Cc2ccc(-c3cccc(-c4nc5cc(F)ccc5[nH]4)c3)cc2)C1 (centres undefined)
3. COc1ccc2nccc([C@@H](O)CN3CCC(NC(=O)c4ccc(Cl)c(Cl)c4)CC3)c2c1

1. 14
2. 28
3. 21

----------
test system: Plasmodium falciparum; assay: GSK_TCMDC: Inhibition of Plasmodium falciparum Dd2 in whole red blood cells, using parasite LDH activity as an index of growth. Test compounds present at 2uM; format: functional
Please respond with 1 (yes) when measured Inhibition is strictly beneath 20%, and with 0 (no) in all other cases.

Solved cases below.
- structureSmiles: "CN1CCN(c2ccnc3ccc(NC(=O)Nc4cccc5c(-c6ccncc6)cccc45)cc23)CC1"
  groupLabel: "0 (no)"
- structureSmiles: "CC(C)[C@H](NCC(=O)c1ccccc1)C(=O)O.Cl"
  groupLabel: "1 (yes)"
- structureSmiles: "O=C(Cc1ccc(-c2ccccc2)cc1)N[C@H]1CCN(Cc2ccc(OCCCN3CCCCC3)cc2)C1"
  groupLabel: "0 (no)"
- structureSmiles: "CN(C)Cc1ccc2nc(-c3cccc(Cc4cc(Cl)ccc4OCc4ccc(Cl)cc4F)n3)[nH]c2c1.Cl"
  groupLabel: "0 (no)"

Now let's try a different one.
API: query returns whether the molecule falls strictly under 20% in Inhibition. Query: "O=c1cc(NCCCCNCc2cccc(Br)c2)[nH]c2ccccc12" 1 (yes)

----------
tested on: Plasmodium falciparum; experiment: GSK_TCMDC: Inhibition of Plasmodium falciparum Dd2 in whole red blood cells, using parasite LDH activity as an index of growth. Test compounds present at 2uM; type: functional
Consider the following compounds; for each one, report its Inhibition.
Number plus unit, in that order.

Examples with their reported Inhibition follow.
- compound: "COc1ccc2ncc(F)c(CCN3C4CCC3CC(NCc3ccc5c(c3)OCCO5)C4)c2n1.Cl (centres undefined)"
  reportedProperty: "Inhibition"
  value: "35%"
- compound: "O=C(Nc1cccc(CN2CCCN(Cc3cccc(O)c3)CC2)c1)c1ccc(-c2ccccc2)cc1.O=C(O)C(F)(F)F"
  reportedProperty: "Inhibition"
  value: "66%"
- compound: "CCCCNCCOc1ccc(-c2nc(-c3ccccc3)c(-c3ccccc3)[nH]2)cc1"
  reportedProperty: "Inhibition"
  value: "34%"
- compound: "CCCN(Cc1nnc(-c2ccco2)o1)C(=O)C1CCN(c2ncc(C(F)(F)F)cc2Cl)CC1"
  reportedProperty: "Inhibition"
  value: "92%"
- compound: "CNC(=O)C(NC(=O)c1ccccc1C(=O)OC)c1ccccc1 (centres undefined)"
  reportedProperty: "Inhibition"
  value: "2%"
- compound: "Cc1ccc2c(=NN=Cc3cccc(F)c3)cc(C)[nH]c2c1"
  reportedProperty: "Inhibition"
  value: "66%"
- compound: "O=C(NC1CCN(Cc2ccccc2)CC1)c1cc(-c2ccncc2)nc2ccc(Cl)cc12"
  reportedProperty: "Inhibition"
  value: "27%"
- compound: "CCc1cc(I)c2c(c1)C(NCCCNc1cc(=O)c3ccccc3[nH]1)CCN2.CS(=O)(=O)O (centres undefined)"
  reportedProperty: "Inhibition"
  value: "32%"

Batch request: Inhibition for each of the following compounds.
1. CC(C)Cc1cnc2nc(N)nc(N)c2c1.Cl
2. CC(=O)c1ccc2nc[nH]c(=O)c2c1
3. C[C@@]12C[C@@H](Nc3nc(NCCc4ccc(O)cc4)nc(N4CCNCC4)n3)C[C@@H](C1)c1cccc(Cl)c1O2.O=C(O)C(F)(F)F
4. Cn1nc(-c2cccc(CN[C@@H]3CCc4ccc(O)cc43)c2)c2cnc(NC3CCCC3)nc21
5. COc1ccc(S(=O)(=O)NCCCC2CCN(CCCCCNC(=O)C=Cc3ccc(Cl)c(Cl)c3)CC2)cc1
6. COc1cc(Nc2nccc(N3CCC(NC(=O)c4cccc(C#N)c4)C3)n2)cc(OC)c1OC (centres undefined)
7. CCCCCCOc1ccc(C(=O)NCCC2CCN(CCCCCNC(=O)C=Cc3ccc(Cl)c(Cl)c3)CC2)cc1

1: 0%; 2: 99%; 3: 47%; 4: 76%; 5: 12%; 6: 76%; 7: 10%

----------
system: HepG2; test: GSK_TCMDC: Percent inhibition of human HepG2 cell line. Test compounds present at 10uM.; format: functional
Rule: measured Inhibition below 20% gets class 1; anything equal to or greater than 20% gets class 0.

Regarding "Cc1cc(=NN=Cc2ccc(F)cc2)c2ccc(F)cc2[nH]1" , kindly confirm whether its Inhibition is beneath 20%. class 1

----------
tested on: Plasmodium falciparum; test: GSK_TCMDC: Inhibition of Plasmodium falciparum Dd2 in whole red blood cells, using parasite LDH activity as an index of growth. Test compounds present at 2uM; type: functional
Answer each item with its documented Inhibition.
Give bare numbers, in %.

The examples below pair each entry with its known result.
- compound: "Cc1cc(N2CCN(C)CC2)nc2ccc(NC(=O)c3cccc(N(C)C)c3)cc12"
  Inhibition / %: 23
- compound: "Cl.O=C(Nc1cc(Cl)cc(Cl)c1)Nc1ccnc2ccccc12"
  Inhibition / %: 65
- compound: "COc1ccc(CCNCCCCCCNCCc2ccc(Cl)c(Cl)c2)cc1OC.Cl"
  Inhibition / %: 10
- compound: "Cc1ccc(Oc2ccc(CNc3nc(Nc4cccc(F)c4)nc(Nc4cccc(F)c4)n3)cc2)cc1"
  Inhibition / %: 0
- compound: "CN(C)c1ccc(-c2csc(C(=O)NCC3CCN(Cc4ccc(C(C)(C)C)cc4)C3)c2)cc1.O=C(O)C(F)(F)F (centres undefined)"
  Inhibition / %: 64
- compound: "CC[C@H]1CN(CCCC(=O)c2ccccc2)CC[C@H]1CCCc1ccnc2ccc(OC(=O)c3ccccc3)cc12.O=C(O)C(=O)O"
  Inhibition / %: 68
- compound: "COc1ccc(O)c(Cc2cnc3nc(N)[nH]c(=O)c3c2C)c1.CS(=O)(=O)O"
  Inhibition / %: 6
- compound: "CCN(CCO)Cc1ccc(-c2ccc(NS(=O)(=O)c3cccc4cccnc34)cc2)cc1.O=C(O)C(F)(F)F"
  Inhibition / %: 16

Attention now turns to another entry.
Given the entry "Cc1noc(C)c1-c1cccc(CNCc2ccc(-c3ccc(-c4nc5cc(F)ccc5[nH]4)cc3)cc2)c1.O=C(O)C(F)(F)F" , report its measured Inhibition. 92

----------
tested on: HepG2; experiment: GSK_TCMDC: Percent inhibition of human HepG2 cell line. Test compounds present at 10uM.; type: functional
Under this convention, rule met denotes Inhibition strictly below 20% and rule not met denotes Inhibition at or above 20%.

Below, 2 molecules whose answers are already recorded.
- molecule: "COc1ccc2ncc(F)c(CCN3CCC(CNC(=O)C(=O)c4c[nH]c5ccccc45)CC3)c2n1"
  groupLabel: "rule not met"
- molecule: "C=CCOC(=O)N1CCC(CNCc2ccc(-c3cccc(-c4nc5cccc(C)c5[nH]4)c3)cc2)C1.O=C(O)C(F)(F)F (stereo not drawn)"
  groupLabel: "rule not met"

Please check: Inhibition for "COc1ccc2cc(CNCCCCCCNCc3ccc4cc(OC)ccc4c3)ccc2c1.CS(=O)(=O)O" , strictly under 20% or not? rule not met

Also, Cc1cc(OCCCN2CCC(NS(=O)(=O)c3ccc(Cl)c(Cl)c3)C2)c2ccccc2n1 (stereo not drawn) please. rule not met

Next entry: "Cc1ccc(CN2CCN(Cc3cccc(NC(=O)c4ccc5ccccc5c4)c3)CC2)cc1C.O=C(O)C(F)(F)F" rule not met

// same read-out, input: "CCCNCc1ccc(-c2ccc(CN(Cc3cnc(C)cn3)C(=O)c3nn(-c4ccccc4)nc3C)cc2)nc1.O=C(O)C(F)(F)F" rule not met

Moving on to the next molecule: "O=C(NCc1ccc(F)cc1)c1ccc(N2CCN(c3ccncc3)CC2)cn1.O=C(O)C(F)(F)F" rule met

What about "CC(C)(C)OC(=O)N(Cc1cc(-n2nnnc2C(F)(F)F)ccc1O)[C@H]1CCCN(C(=O)OC(C)(C)C)[C@H]1c1ccccc1" ? rule met

----------
Please go through the items and note down their Inhibition.
system: Plasmodium falciparum; assay: GSK_TCMDC: Inhibition of Plasmodium falciparum Dd2 in whole red blood cells, using parasite LDH activity as an index of growth. Test compounds present at 2uM; format: functional
Numbers only, in %.

- compound: "CCN(CCCN1CCCCC1)c1cc(C)nc(Nc2ccc(Cl)cc2C)n1.O=C(O)C(F)(F)F"
  value: 46
- compound: "CN(C)CCNCc1cccc(-c2ccc3c(Nc4ccc(F)cc4Cl)ccnc3c2)c1"
  value: 98
- compound: "COc1cc2nc(Nc3ccc4c(cnn4Cc4ccccc4)c3)nc(Nc3ccc4c(cnn4Cc4ccccc4)c3)c2cc1OC"
  value: 100
- compound: "Nc1ccc2nc(C=Cc3ccc(Cl)cc3)[nH]c2c1"
  value: 83
- compound: "COc1ccc2nccc([C@@H](O)CN3CCC(NC(=O)C(c4ccsc4)N4CCN(c5ccccc5)CC4)CC3)c2c1 (stereo partly drawn)"
  value: 17

For every item below, please supply its Inhibition.
1. CC(=O)c1c[nH]c(C(=O)Nc2ccc(-c3cn4ccccc4n3)cc2)c1
2. COc1ccc(C(=O)Nc2cc(Br)c3c(c2)CNCC3)cc1Br.Cl
3. O=C(NC1CCN(Cc2ccsc2)CC1)c1ccc(-c2cccc(C(F)(F)F)c2)s1.O=C(O)C(F)(F)F
4. COc1cc(F)c2ncc(F)c([C@@H](O)CN3CCC(NCc4cc5c(cn4)OCCO5)CC3)c2c1.Cl
5. Cc1nc(-c2ccc(-c3ccc(NC(=O)c4coc5ccc(N6CC(C)NC(C)C6)cc45)cc3)c(C)c2)no1.Cl (stereo not drawn)
6. c1cc2[nH]c(CCc3nc4cc(C5=NC6CCCCC6N5)ccc4[nH]3)nc2cc1C1=NC2CCCCC2N1 (stereo not drawn)

[95, 8, 3, 88, 88, 96]

Record Inhibition for all entries; do not skip any.
1. COc1cc(C(=O)N2CCOC(CCN3CCC(Cc4ccc(F)cc4)CC3)(c3ccc(Cl)c(Cl)c3)C2)cc(OC)c1OC (stereo not drawn)
2. COc1ccc2c(c1)CCCC2NCCCCNC(=O)c1ccc(NC(=O)c2ccc(Cl)cc2)cc1 (stereo not drawn)
3. COc1cc(NCC2(CNCc3cn(Cc4ccccc4)c4ccccc34)CCCCC2)nc2ccccc12.Cl
4. O=C(C=Cc1ccc(Cl)c(Cl)c1)NCCCCCN1CCC(CCCNC(=O)c2ccc3c(c2)OCO3)CC1

[58, 49, 12, 64]

For each of the items listed, what is its Inhibition?
1. Br.CC1(C)NC(N)=NC(=N)N1OCCSc1ccccc1
2. CCC(=O)Oc1ccc(NC(=O)c2cccc(OC)c2)cc1
3. O=C(Cc1c[nH]cn1)Nc1cccc(-c2ccc(-c3nc4ccccc4[nH]3)cc2)c1
4. COc1ccc(-c2ccc(NC(=O)c3cccc(Cl)c3)cc2)cc1CN(C)CCO.O=C(O)C(F)(F)F
5. CC(=O)N(C)c1cccc(CNc2cc(C)nc(Nc3ccc(C)cc3)n2)c1

95
3
72
52
21
